Test system: T. foetus
measurement notes: In vitro antiprotozoal activity against T. foetus
Assay type: cell-based
protocol conditions: Tritrichomonas foetus; in vitro; T. foetus; read-out: Activity IC50 T. foetus
property name: IC50 (µg/mL)

Give the reported IC50 for Cc1nc(CCO)n(C)c1[N+](=O)[O-] (system: T. foetus).
1.9

P. Cc1nc(CCO)c([N+](=O)[O-])n1C
Q. Cc1nc(COC(N)=O)n(C)c1[N+](=O)[O-]
R. Cc1ncc([N+](=O)[O-])n1CCO
Rank the 3 molecules: largest IC50 first, smallest last. Ranked list of labels, please, in the requested order.
P, Q, R
